Reported normalized RNA/DNA level without ligand (log10) values for a set of variants
B1: library; a variant is named by its letters at N, in order (parent)
chain: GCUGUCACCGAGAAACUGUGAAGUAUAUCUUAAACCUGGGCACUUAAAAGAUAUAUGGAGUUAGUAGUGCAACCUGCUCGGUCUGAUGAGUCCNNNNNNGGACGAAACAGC

variants of: B1; assay: normalized RNA/DNA level without ligand (relative to sTRSVctl = 100) (log10 (% of sTRSVctl)); HEK293T; ligand: cyclic di-GMP (c-di-GMP-II aptamer); higher = less ribozyme self-cleavage, higher mRNA level; conditions: reporter: mCherry (pCS4076), ligand present: no
A bare number is all that is needed in reply.

Please review the entries below; each comes with its answer.
GCUGUCACCGAGAAACUGUGAAGUAUAUCUUAAACCUGGGCACUUAAAAGAUAUAUGGAGUUAGUAGUGCAACCUGCUCGGUCUGAUGAGUCCUAACUCGGACGAAACAGC [UAACUC] | 1.78
GCUGUCACCGAGAAACUGUGAAGUAUAUCUUAAACCUGGGCACUUAAAAGAUAUAUGGAGUUAGUAGUGCAACCUGCUCGGUCUGAUGAGUCCAAAGGCGGACGAAACAGC [AAAGGC] | 1.6
GCUGUCACCGAGAAACUGUGAAGUAUAUCUUAAACCUGGGCACUUAAAAGAUAUAUGGAGUUAGUAGUGCAACCUGCUCGGUCUGAUGAGUCCAUCCCCGGACGAAACAGC [AUCCCC] | 1.8

For GCUGUCACCGAGAAACUGUGAAGUAUAUCUUAAACCUGGGCACUUAAAAGAUAUAUGGAGUUAGUAGUGCAACCUGCUCGGUCUGAUGAGUCCCCCACAGGACGAAACAGC [CCCACA] , what is its reported normalized RNA/DNA level without ligand (log10)?
1.57

State the recorded normalized RNA/DNA level without ligand (log10) for this entry: GCUGUCACCGAGAAACUGUGAAGUAUAUCUUAAACCUGGGCACUUAAAAGAUAUAUGGAGUUAGUAGUGCAACCUGCUCGGUCUGAUGAGUCCCACUGUGGACGAAACAGC [CACUGU]
1.71

# query: normalized RNA/DNA level without ligand (log10) of entry GCUGUCACCGAGAAACUGUGAAGUAUAUCUUAAACCUGGGCACUUAAAAGAUAUAUGGAGUUAGUAGUGCAACCUGCUCGGUCUGAUGAGUCCUCGGAUGGACGAAACAGC [UCGGAU]
1.43

What does the data say about its normalized RNA/DNA level without ligand (log10)? Entry: GCUGUCACCGAGAAACUGUGAAGUAUAUCUUAAACCUGGGCACUUAAAAGAUAUAUGGAGUUAGUAGUGCAACCUGCUCGGUCUGAUGAGUCCAUUAAGGGACGAAACAGC [AUUAAG]
1.55

normalized RNA/DNA level without ligand (log10) for GCUGUCACCGAGAAACUGUGAAGUAUAUCUUAAACCUGGGCACUUAAAAGAUAUAUGGAGUUAGUAGUGCAACCUGCUCGGUCUGAUGAGUCCUUGUGGGGACGAAACAGC [UUGUGG] ?
1.79

Any idea what normalized RNA/DNA level without ligand (log10) was measured for GCUGUCACCGAGAAACUGUGAAGUAUAUCUUAAACCUGGGCACUUAAAAGAUAUAUGGAGUUAGUAGUGCAACCUGCUCGGUCUGAUGAGUCCAGUGGGGGACGAAACAGC [AGUGGG] ?
1.69

Given the entry GCUGUCACCGAGAAACUGUGAAGUAUAUCUUAAACCUGGGCACUUAAAAGAUAUAUGGAGUUAGUAGUGCAACCUGCUCGGUCUGAUGAGUCCCCAAAGGGACGAAACAGC [CCAAAG] , report its measured normalized RNA/DNA level without ligand (log10).
1.41
